Tested on: Escherichia coli TOP10;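 also: peptides expressed intracellularly from a pBAD plasmid library in pooled LB shake-flask culture, induced with 0.3% L-arabinose, DNA abundance read by NGS, three biological replicates, DESeq2 with apeglm shrinkage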
Assay: shrunken log2 fold change of peptide-encoding DNA abundance (4.5 h post-induction vs induction); higher = less antimicrobial activity (less host growth inhibition)
Conditions: time post-induction: 4.5 h; library: site-saturation at positions 5, 18, 19, 20
The label depends only on shrunken log2 fold change: yes if it is at least -0.08, no if it is smaller.

# input Is the recorded value of shrunken log2 fold change equal to or greater than -0.08 for this sequence? RRIRSRPPRLPRPRPRPQYFPRP
# output no

# input Check this sequence for shrunken log2 fold change at or above -0.08: RRIRNRPPRLPRPRPRPPARPRP
# output yes

# input Hi, just wondering whether RRIRVRPPRLPRPRPRPDGTPRP shows shrunken log2 fold change of -0.08 or higher.
# output no

# input hey, is shrunken log2 fold change for this one >= -0.08? RRIRMRPPRLPRPRPRPVGYPRP
# output yes

# input Hi team, for RRIRHRPPRLPRPRPRPPQIPRP , is the recorded shrunken log2 fold change at or above -0.08?
# output yes

# input # bool: shrunken log2 fold change of RRIRCRPPRLPRPRPRPRKNPRP >= -0.08
# output yes

# input Test whether the sequence RRIRNRPPRLPRPRPRPLIPPRP records shrunken log2 fold change of -0.08 or higher.
# output no

# input Identify whether the reported shrunken log2 fold change of the following sequence is -0.08 or greater: RRIRQRPPRLPRPRPRPIEMPRP
# output no

---
# input Can RRIRTRPPRLPRPRPRPSCCPRP be said to have shrunken log2 fold change at or above -0.08?
# output no

# input Threshold query (shrunken log2 fold change >= -0.08) on RRIRVRPPRLPRPRPRPACQPRP
# output yes
